Origin of values: patent US20130053337A1

System: P. aeruginosa (gentamicin-resistant) CAN-ICU 62308
PROTOCOL_DESCRIPTION: MIC, broth macrodilution (CLSI)
Assay type: cell-based
STATED_CONDITIONS: P. aeruginosa CAN-ICU 62308
For each of the molecules below, state its MIC.
Just the number in µg/mL, nothing appended.

Reported MIC ( CCCCCCCCCCCCCCCCCCCC(=O)NCC1OC(OC2C(O)C(NC(=N)N)CC(NC(=N)N)C2OC2OC(CNC(=N)N)C(O)C(O)C2NC(=N)N)C(O)C1OC1OC(CNC(=N)N)C(O)C(O)C1NC(=N)N.O=C(O)C(F)(F)F.O=C(O)C(F)(F)F.O=C(O)C(F)(F)F.O=C(O)C(F)(F)F.O=C(O)C(F)(F)F.O=C(O)C(F)(F)F (stereo not drawn) [Compound 11] ) = 64

Recorded result, NC[C@@H]1O[C@H](O[C@H]2[C@@H](O)[C@H](O[C@@H]3[C@@H](O)[C@H](N)C[C@H](N)[C@H]3O[C@H]3O[C@H](CN)[C@@H](O)[C@H](O)[C@H]3N)O[C@@H]2CNC(=O)CCCc2ccc3ccc4cccc5ccc2c3c45)[C@H](N)[C@@H](O)[C@@H]1O.O=C(O)C(F)(F)F.O=C(O)C(F)(F)F.O=C(O)C(F)(F)F.O=C(O)C(F)(F)F.O=C(O)C(F)(F)F.O=C(O)C(F)(F)F [Compound 6] , MIC: 256

// MIC lookup, molecule = NC[C@@H]1O[C@H](O[C@H]2[C@@H](O)[C@H](O[C@@H]3[C@@H](O)[C@H](N)C[C@H](N)[C@H]3O[C@H]3O[C@H](CN)[C@@H](O)[C@H](O)[C@H]3N)O[C@@H]2CO)[C@H](N)[C@@H](O)[C@@H]1O [Neomycin B, reference compound] , result: 512

---

Test system: S. epidermidis ATCC 14990
PROTOCOL_DESCRIPTION: MIC, broth macrodilution (CLSI)
Type: cell-based, Staphylococcus epidermidis
STATED_CONDITIONS: S. epidermidis ATCC14990
OBSERVATION_TYPE: MIC (µg/mL)
Report the value in µg/mL with no unit label.

Entry CCCCCC(=O)NCC1OC(OC2C(O)C(NC(=N)N)CC(NC(=N)N)C2OC2OC(CNC(=N)N)C(O)C(O)C2NC(=N)N)C(O)C1OC1OC(CNC(=N)N)C(O)C(O)C1NC(=N)N.O=C(O)C(F)(F)F.O=C(O)C(F)(F)F.O=C(O)C(F)(F)F.O=C(O)C(F)(F)F.O=C(O)C(F)(F)F.O=C(O)C(F)(F)F (centres unmarked) under S. epidermidis ATCC 14990 had MIC of 64

Bench note, S. epidermidis ATCC 14990: CCCCCCCCCCCC(=O)NCC1OC(OC2C(O)C(NC(=N)N)CC(NC(=N)N)C2OC2OC(CNC(=N)N)C(O)C(O)C2NC(=N)N)C(O)C1OC1OC(CNC(=N)N)C(O)C(O)C1NC(=N)N.O=C(O)C(F)(F)F.O=C(O)C(F)(F)F.O=C(O)C(F)(F)F.O=C(O)C(F)(F)F.O=C(O)C(F)(F)F.O=C(O)C(F)(F)F (centres unmarked) , MIC reads 2

The measured MIC that CCCCCCCCCCCCCCCC(=O)NC[C@H]1O[C@@H](O[C@@H]2[C@@H](O)[C@H](N)C[C@H](N)[C@H]2O[C@H]2O[C@H](CN)[C@@H](O)[C@H](O)[C@H]2N)[C@H](O)[C@@H]1O[C@H]1O[C@@H](CN)[C@@H](O)[C@H](O)[C@H]1N.O=C(O)C(F)(F)F.O=C(O)C(F)(F)F.O=C(O)C(F)(F)F.O=C(O)C(F)(F)F.O=C(O)C(F)(F)F.O=C(O)C(F)(F)F showed for S. epidermidis ATCC 14990 is 2

Given the compound CCCCCCCCCCCC(=O)NC[C@H]1O[C@@H](O[C@@H]2[C@@H](O)[C@H](N)C[C@H](N)[C@H]2O[C@H]2O[C@H](CN)[C@@H](O)[C@H](O)[C@H]2N)[C@H](O)[C@@H]1O[C@H]1O[C@@H](CN)[C@@H](O)[C@H](O)[C@H]1N.O=C(O)C(F)(F)F.O=C(O)C(F)(F)F.O=C(O)C(F)(F)F.O=C(O)C(F)(F)F.O=C(O)C(F)(F)F.O=C(O)C(F)(F)F and test system S. epidermidis ATCC 14990, the measured MIC is 4

Measured MIC (S. epidermidis ATCC 14990), entry NC[C@@H]1O[C@H](O[C@H]2[C@@H](O)[C@H](O[C@@H]3[C@@H](O)[C@H](N)C[C@H](N)[C@H]3O[C@H]3O[C@H](CN)[C@@H](O)[C@H](O)[C@H]3N)O[C@@H]2CNC(=O)CCCc2ccc3ccc4cccc5ccc2c3c45)[C@H](N)[C@@H](O)[C@@H]1O.O=C(O)C(F)(F)F.O=C(O)C(F)(F)F.O=C(O)C(F)(F)F.O=C(O)C(F)(F)F.O=C(O)C(F)(F)F.O=C(O)C(F)(F)F : 2

The measured MIC that CCCCCCCCCCCCCCCC(=O)NCC1OC(OC2C(N)CC(N)C(OC3OC(CN)C(O)C(O)C3O)C2O)C(O)C(N)C1O.O=C(O)C(F)(F)F.O=C(O)C(F)(F)F.O=C(O)C(F)(F)F.O=C(O)C(F)(F)F (centres unmarked) showed for S. epidermidis ATCC 14990 is 2

Per the reported S. epidermidis ATCC 14990 data, CC(CCC(=O)NCC1OC(OC2C(O)C(NC(=N)N)CC(NC(=N)N)C2OC2OC(CNC(=N)N)C(O)C(O)C2NC(=N)N)C(O)C1OC1OC(CNC(=N)N)C(O)C(O)C1NC(=N)N)C1CCC2C3C(O)CC4CC(O)CCC4(C)C3CC(O)C12C.O=C(O)C(F)(F)F.O=C(O)C(F)(F)F.O=C(O)C(F)(F)F.O=C(O)C(F)(F)F.O=C(O)C(F)(F)F.O=C(O)C(F)(F)F (centres unmarked) has MIC of 4

For CCCCCCCCCCCCCCCCCCCC(=O)NC[C@H]1O[C@@H](O[C@@H]2[C@@H](O)[C@H](N)C[C@H](N)[C@H]2O[C@H]2O[C@H](CN)[C@@H](O)[C@H](O)[C@H]2N)[C@H](O)[C@@H]1O[C@H]1O[C@@H](CN)[C@@H](O)[C@H](O)[C@H]1N.O=C(O)C(F)(F)F.O=C(O)C(F)(F)F.O=C(O)C(F)(F)F.O=C(O)C(F)(F)F.O=C(O)C(F)(F)F.O=C(O)C(F)(F)F on S. epidermidis ATCC 14990, measured MIC was 4

Let me check: N=C(N)NCC1OC(OC2C(CNC(=O)CCCc3ccc4ccc5cccc6ccc3c4c56)OC(OC3C(O)C(NC(=N)N)CC(NC(=N)N)C3OC3OC(CNC(=N)N)C(O)C(O)C3NC(=N)N)C2O)C(NC(=N)N)C(O)C1O.O=C(O)C(F)(F)F.O=C(O)C(F)(F)F.O=C(O)C(F)(F)F.O=C(O)C(F)(F)F.O=C(O)C(F)(F)F.O=C(O)C(F)(F)F (centres unmarked) , system S. epidermidis ATCC 14990, measured MIC is 8

Entry CCCCC/C=C\C/C=C\CCCCCCCC(=O)NCC1OC(OC2C(O)C(NC(=N)N)CC(NC(=N)N)C2OC2OC(CNC(=N)N)C(O)C(O)C2NC(=N)N)C(O)C1OC1OC(CNC(=N)N)C(O)C(O)C1NC(=N)N.O=C(O)C(F)(F)F.O=C(O)C(F)(F)F.O=C(O)C(F)(F)F.O=C(O)C(F)(F)F.O=C(O)C(F)(F)F.O=C(O)C(F)(F)F (centres unmarked) ; assay system S. epidermidis ATCC 14990; MIC recorded at 4

Per the reported S. epidermidis ATCC 14990 data, C[C@H](CCC(=O)NC[C@H]1O[C@@H](O[C@@H]2[C@@H](O)[C@H](N)C[C@H](N)[C@H]2O[C@H]2O[C@H](CN)[C@@H](O)[C@H](O)[C@H]2N)[C@H](O)[C@@H]1O[C@H]1O[C@@H](CN)[C@@H](O)[C@H](O)[C@H]1N)[C@H]1CC[C@H]2[C@@H]3[C@H](O)C[C@@H]4C[C@H](O)CC[C@]4(C)[C@H]3C[C@H](O)[C@]12C.O=C(O)C(F)(F)F.O=C(O)C(F)(F)F.O=C(O)C(F)(F)F.O=C(O)C(F)(F)F.O=C(O)C(F)(F)F.O=C(O)C(F)(F)F has MIC of 8

---

Test system: E. faecalis ATCC 29212
PROTOCOL_DESCRIPTION: MIC, broth macrodilution (CLSI)
Format: cell-based, Enterococcus faecalis
STATED_CONDITIONS: E. faecalis ATCC29212
OBSERVATION_TYPE: MIC (µg/mL)
Please respond with the number in µg/mL and leave the unit unwritten.

Record CC(CCC(=O)NCC1OC(OC2C(O)C(NC(=N)N)CC(NC(=N)N)C2OC2OC(CNC(=N)N)C(O)C(O)C2NC(=N)N)C(O)C1OC1OC(CNC(=N)N)C(O)C(O)C1NC(=N)N)C1CCC2C3C(O)CC4CC(O)CCC4(C)C3CC(O)C12C.O=C(O)C(F)(F)F.O=C(O)C(F)(F)F.O=C(O)C(F)(F)F.O=C(O)C(F)(F)F.O=C(O)C(F)(F)F.O=C(O)C(F)(F)F (stereo not shown) has E. faecalis ATCC 29212 MIC equal to 32
